# ASSAYED_SYSTEM: JAK3 (Homo sapiens)
# Construct: purchased Invitrogen
# Sequence (P52333 1-1124): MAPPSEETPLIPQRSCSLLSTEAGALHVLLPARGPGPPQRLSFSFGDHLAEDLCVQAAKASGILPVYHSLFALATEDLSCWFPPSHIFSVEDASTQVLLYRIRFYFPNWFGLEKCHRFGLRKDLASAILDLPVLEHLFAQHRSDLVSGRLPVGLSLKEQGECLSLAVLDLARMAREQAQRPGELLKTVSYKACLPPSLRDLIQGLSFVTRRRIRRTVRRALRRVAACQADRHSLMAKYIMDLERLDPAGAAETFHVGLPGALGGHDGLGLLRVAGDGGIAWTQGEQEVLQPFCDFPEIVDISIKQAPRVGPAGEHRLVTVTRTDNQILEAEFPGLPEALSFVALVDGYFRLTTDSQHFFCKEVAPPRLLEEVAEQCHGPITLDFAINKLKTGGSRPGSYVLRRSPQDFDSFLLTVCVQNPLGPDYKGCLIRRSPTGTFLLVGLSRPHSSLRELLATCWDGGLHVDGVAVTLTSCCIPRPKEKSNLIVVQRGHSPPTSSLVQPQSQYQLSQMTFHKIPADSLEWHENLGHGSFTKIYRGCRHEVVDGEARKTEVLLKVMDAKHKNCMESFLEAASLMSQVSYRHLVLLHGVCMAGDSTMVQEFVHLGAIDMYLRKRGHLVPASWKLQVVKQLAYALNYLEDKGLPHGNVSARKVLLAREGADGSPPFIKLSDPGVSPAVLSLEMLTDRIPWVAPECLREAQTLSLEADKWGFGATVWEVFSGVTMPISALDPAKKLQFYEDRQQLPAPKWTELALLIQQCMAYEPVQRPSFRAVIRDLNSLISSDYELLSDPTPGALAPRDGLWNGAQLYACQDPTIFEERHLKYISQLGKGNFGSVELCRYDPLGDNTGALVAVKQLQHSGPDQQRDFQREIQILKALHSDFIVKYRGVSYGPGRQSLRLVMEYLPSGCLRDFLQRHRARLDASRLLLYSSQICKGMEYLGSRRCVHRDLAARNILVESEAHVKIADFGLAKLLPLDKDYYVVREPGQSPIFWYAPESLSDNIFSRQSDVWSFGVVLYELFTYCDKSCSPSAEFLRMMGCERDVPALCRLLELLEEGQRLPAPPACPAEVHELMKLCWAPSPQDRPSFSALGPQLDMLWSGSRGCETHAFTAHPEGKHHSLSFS
# ASSAY_METHOD_TEXT: Assay for JAK3 Inhibition (phosphorylation of FAM-labeled substrate, Caliper LC-3000)
# Assay type: biochemical
# CONDITION_PARAMETERS: −log10(IC50), IC50 is the molar concentration at 50% inhibition; read-out: JAK3 pIC50 (converted)
MEASUREMENT_KIND: IC50 (nM)

1 = CC(C)[C@H](C(=O)NCC#N)N1Cc2c(Cl)cnc3[nH]cc(c23)C1=O [Example 32]
2 = CC(C)[C@H](C(=O)N1CCS(=O)(=O)C1)N1Cc2c(F)cnc3[nH]cc(c23)C1=O [Example 77]
In: Pick one: 1 or 2 . Which has the bigger IC50 number? Bench note: the answer is the label of the chosen record.
Out: 2
(2: 63.1 nM, 1: 10 nM)

a = CC[C@H](C(=O)N(C)CC(C)C)N1Cc2ccnc3[nH]cc(c23)C1=O [Example 68]
b = CC(C)[C@H](C(=O)NC1CCCC1)N1Cc2ccnc3[nH]cc(c23)C1=O [Example 22]
c = CC(C)C[C@H](C(=O)N1CCCC1)N1Cc2ccnc3[nH]cc(c23)C1=O [Example 21]
d = CC[C@H](C(=O)N1CCN(S(C)(=O)=O)CC1)N1Cc2ccnc3[nH]cc(c23)C1=O [Example 63]
e = CCC1(N2Cc3c[nH]c4nccc(c34)C2=O)CCN(C(=O)CC#N)CC1 [Example 9]
In: Please put the entries in order of rising IC50. Put the labels in the requested order and list them out.
Out: e, b, c, d, a
(e: 10 nM, b: 31.6 nM, c: 126 nM, d: 631 nM, a: 2510 nM)

1 = O=C1c2c[nH]c3nccc(c23)CN1C1(C(=O)NC2CCCC2)CCCC1 [Example 31]
2 = CC(C)[C@H](C(=O)N1CCC(C#N)CC1)N1Cc2c(Cl)cnc3[nH]cc(c23)C1=O [Example 34]
In: // select label with min value of measured IC50 from [ 1 , 2 ] Bench note: the answer is the label of the chosen record.
Out: 2
(2: 15.8 nM, 1: 20000 nM)

A = CC(C)(C)OC(=O)N1CCC(CN2Cc3c[nH]c4nccc(c34)C2=O)C1 (stereo not shown) [Example 12]
B = CC(C)(C)[C@H](C(=O)NCC#N)N1Cc2ccnc3[nH]cc(c23)C1=O [Example 83]
C = CC(C)[C@H](C(=O)N(C)CCC#N)N1Cc2c(F)cnc3[nH]cc(c23)C1=O [Example 43]
In: Please put the entries in order of rising IC50. Put the labels in the requested order and list them out.
Out: B, C, A
(B: 12.6 nM, C: 794 nM, A: 7940 nM)

a = CC(C)[C@H](C(=O)N1CC(C(F)F)C1)N1Cc2c(F)cnc3[nH]cc(c23)C1=O [Example 80]
b = CC[C@H](C(=O)N1CCOCC1)N1Cc2ccnc3[nH]cc(c23)C1=O [Example 54]
In: // select label with min value of measured IC50 from [ a , b ] Bench note: the answer is the label of the chosen record.
Out: a

1 = CC(C)(O)[C@H](C(=O)NC1CCCC1)N1Cc2ccnc3[nH]cc(c23)C1=O [Example 29]
2 = CC[C@H](C(=O)NC[C@H](O)CO)N1Cc2ccnc3[nH]cc(c23)C1=O [Example 71]
In: Pick one: 1 or 2 . Which has the bigger IC50 number? Bench note: the answer is the label of the chosen record.
Out: 2

P = Cc1cnc2[nH]cc3c2c1CN([C@@H](C(=O)N1CC(C#N)C1)C(C)C)C3=O [Example 88]
Q = CC(C)(C)[C@H](C(=O)N1CC(C#N)C1)N1Cc2c(Cl)cnc3[nH]cc(c23)C1=O [Example 41]
In: // select label with min value of measured IC50 from [ P , Q ] Bench note: the answer is the label of the chosen record.
Out: P

I = CC[C@H](C)[C@H](C(=O)NC1CCCC1)N1Cc2ccnc3[nH]cc(c23)C1=O [Example 24]
II = CC(C)[C@H](C(=O)Nc1ccc(C#N)cc1)N1Cc2c(Cl)cnc3[nH]cc(c23)C1=O [Example 35]
III = Cc1cnc2[nH]cc3c2c1CN([C@@H](C(=O)N1CC(C#N)C1)C(C)(C)C)C3=O [Example 87]
In: Please put the entries in order of rising IC50. Put the labels in the requested order and list them out.
Out: III, II, I
